- Test system: Staphylococcus aureus NCTC 8325-4
- experiment_summary: Growth in LB broth flask culture with or without calcium chloride supplementation (visual growth, terminal plate count)
- Assay type: cell-based
- conditions_used: procedures as for Table 8
- Description: The test organism is Staphylococcus aureus NCTC 8325-4 as described in the methods and flask cultures are 100 ml of Luria-Bertani broth (LB broth) in 250 ml Erlenmeyer flasks. LB broth is used instead of brain Heart Infusion because it is more defined and limited in mineral content. […]
Would you kindly list critical limit in combination with 0.5% calcium chloride for each of these compounds?
Please reply with the bare figure in % and do not write the unit itself.

Prompt line: Give the reported critical limit in combination with 0.5% calcium chloride for this compound. O=C([O-])CC(O)(CC(=O)[O-])C(=O)[O-].[Na+].[Na+].[Na+] [tri-sodium citrate]
Response line: 0.5

Prompt line: Give the reported critical limit in combination with 0.5% calcium chloride for this compound. O=P([O-])([O-])O.[Na+].[Na+] [di-sodium orthophosphate]
Response line: 0.75

Prompt line: Give the reported critical limit in combination with 0.5% calcium chloride for this compound. O=P([O-])([O-])O[C@H]1[C@H](OP(=O)([O-])O)[C@H](OP(=O)([O-])[O-])[C@H](OP(=O)([O-])O)[C@@H](OP(=O)([O-])[O-])[C@@H]1OP(=O)([O-])O.[Na+].[Na+].[Na+].[Na+].[Na+].[Na+].[Na+].[Na+].[Na+] [sodium phytate]
Response line: 0.2

Reference for the values: patent US12484600B2
